Origin of the recorded values: paper PMC12057336

test: in vivo; conditions: Sprague-Dawley, rat, in vivo, po, 63 mg/kg, tmax
readout_kind: Tmax

# return recorded Tmax for entry CC(=O)NC[C@H]1CN(c2ccc(N(CCO)CC(=O)O)c(F)c2)C(=O)O1 [PNU-142586] 2.8 h

---

experiment: Tissue distribution after i.g. or i.v. linezolid in control, CCl4-induced and 5/6 Nx rats; format: in vivo, rat; details: rat, lung, iv, 25 mg/kg, i.v. 25 mg/kg linezolid; 4 h; 5/6 Nx rats; read-out: Tissue/plasma concentration ratio, Lung
readout_kind: Kp at 4 h
Answer with a number only.

State, in one line, measured Kp at 4 h of CC(=O)NC[C@H]1CN(c2ccc(N3CCOCC3)c(F)c2)C(=O)O1 [Linezolid] 0.74

---

assay: Tissue distribution after i.g. or i.v. linezolid in control, CCl4-induced and 5/6 Nx rats; assay type: in vivo, rat; settings: rat, lung, iv, 25 mg/kg, i.v. 25 mg/kg linezolid; 1 h; 5/6 Nx rats; read-out: Tissue/plasma concentration ratio, Lung
readout_kind: Kp at 1 h

Read the entry CC(=O)NC[C@H]1CN(c2ccc(N3CCOCC3)c(F)c2)C(=O)O1 and write its reported Kp at 1 h. 0.91

---

assay: Tissue distribution after i.g. or i.v. linezolid in control, CCl4-induced and 5/6 Nx rats; format: in vivo, rat; conditions: rat, kidney, iv, 25 mg/kg, i.v. 25 mg/kg linezolid; 1 h; 5/6 Nx rats; read-out: Tissue/plasma concentration ratio, Kidney
readout_kind: Kp at 1 h
Lab note: write the figure by itself, no unit.

Given CC(=O)NC[C@H]1CN(c2ccc(N3CCOCC3)c(F)c2)C(=O)O1 , respond with its Kp at 1 h. 0.92

---

Test: Tissue distribution after i.g. or i.v. linezolid in control, CCl4-induced and 5/6 Nx rats
Type: in vivo, rat
Settings: rat, liver, iv, 25 mg/kg, i.v. 25 mg/kg linezolid; 4 h; 5/6 Nx rats; read-out: Tissue/plasma concentration ratio, Liver
Procedure: These two groups were further divided into the following three subgroups (n = 4): control rats, CCl4-induced rats, and 5/6 Nx rats. […] The rats were euthanized immediately after blood sampling. The brain, heart, lungs, liver, kidneys, and small intestine were collected. […] Then, 5 µL of the supernatant was analyzed.
readout_kind: Kp at 4 h
Quick one: just the number, no unit, thanks!

For CC(=O)NC[C@H]1CN(c2ccc(N3CCOCC3)c(F)c2)C(=O)O1 , write its Kp at 4 h. 1.39

---

assay: Tissue distribution after i.g. or i.v. linezolid in control, CCl4-induced and 5/6 Nx rats; type: in vivo, rat; conditions: rat, lung, oral, 63 mg/kg, i.g. 63 mg/kg linezolid; 4 h; 5/6 Nx rats; read-out: Tissue/plasma concentration ratio, Lung
readout_kind: Kp at 4 h
Enter the number alone.

Respond only with Kp at 4 h recorded for CC(=O)NC[C@H]1CN(c2ccc(N3CCOCC3)c(F)c2)C(=O)O1 0.82

---

experiment: in vivo; settings: Sprague-Dawley, rat, in vivo, po, 63 mg/kg, CLr
readout_kind: CL renal (mL/min/kg)
Numbers only here, please. The scale is mL/min/kg.

Give the reported value of CL renal for this record: CC(=O)NC[C@H]1CN(c2ccc(N3CCOCC3)c(F)c2)C(=O)O1 [Linezolid] 0.333

---

assay: Tissue distribution after i.g. or i.v. linezolid in control, CCl4-induced and 5/6 Nx rats; assay type: in vivo, rat; conditions: rat, small intestine, iv, 25 mg/kg, i.v. 25 mg/kg linezolid; 1 h; CCl4-induced rats; read-out: Tissue/plasma concentration ratio, Small intestine
readout_kind: Kp at 1 h
Note: the reply should be a number with no unit written.

Name the recorded Kp at 1 h of the item CC(=O)NC[C@H]1CN(c2ccc(N3CCOCC3)c(F)c2)C(=O)O1 in your answer. 0.69

---

experiment: Tissue distribution after i.g. or i.v. linezolid in control, CCl4-induced and 5/6 Nx rats; type: in vivo, rat; conditions: rat, heart, iv, 25 mg/kg, i.v. 25 mg/kg linezolid; 1 h; control rats; read-out: Tissue/plasma concentration ratio, Heart
readout_kind: Kp at 1 h
Give the figure by itself; no unit, no explanation.

Respond only with Kp at 1 h recorded for CC(=O)NC[C@H]1CN(c2ccc(N3CCOCC3)c(F)c2)C(=O)O1 0.4

---

test: Tissue distribution after i.g. or i.v. linezolid in control, CCl4-induced and 5/6 Nx rats; type: in vivo, rat; conditions: rat, small intestine, oral, 63 mg/kg, i.g. 63 mg/kg linezolid; 1 h; 5/6 Nx rats; read-out: Tissue/plasma concentration ratio, Small intestine
readout_kind: Kp at 1 h
Give the figure by itself; no unit, no explanation.

Tell me Kp at 1 h reported for CC(=O)NC[C@H]1CN(c2ccc(N3CCOCC3)c(F)c2)C(=O)O1 1.28

---

assay: Tissue distribution after i.g. or i.v. linezolid in control, CCl4-induced and 5/6 Nx rats; type: in vivo, rat; conditions: rat, small intestine, iv, 25 mg/kg, i.v. 25 mg/kg linezolid; 4 h; CCl4-induced rats; read-out: Tissue/plasma concentration ratio, Small intestine
readout_kind: Kp at 4 h
# print the numeric value only

Assign Kp at 4 h to the following record: CC(=O)NC[C@H]1CN(c2ccc(N3CCOCC3)c(F)c2)C(=O)O1 0.71

---

Test: Tissue distribution after i.g. or i.v. linezolid in control, CCl4-induced and 5/6 Nx rats
Format: in vivo, rat
Conditions: rat, heart, oral, 63 mg/kg, i.g. 63 mg/kg linezolid; 0.5 h; CCl4-induced rats; read-out: Tissue/plasma concentration ratio, Heart
Procedure: These two groups were further divided into the following three subgroups (n = 4): control rats, CCl4-induced rats, and 5/6 Nx rats. […] The rats were euthanized immediately after blood sampling. The brain, heart, lungs, liver, kidneys, and small intestine were collected. […] Then, 5 µL of the supernatant was analyzed.
readout_kind: Kp at 0.5 h
The answer should be written as a number, with no unit following it.

Dear colleague, please send me the reported Kp at 0.5 h for CC(=O)NC[C@H]1CN(c2ccc(N3CCOCC3)c(F)c2)C(=O)O1 when you can. 0.64

---

assay: Tissue distribution after i.g. or i.v. linezolid in control, CCl4-induced and 5/6 Nx rats; assay type: in vivo, rat; conditions: rat, liver, iv, 25 mg/kg, i.v. 25 mg/kg linezolid; 4 h; CCl4-induced rats; read-out: Tissue/plasma concentration ratio, Liver
readout_kind: Kp at 4 h

Report Kp at 4 h for CC(=O)NC[C@H]1CN(c2ccc(N3CCOCC3)c(F)c2)C(=O)O1 1.19

---

assay: Tissue distribution after i.g. or i.v. linezolid in control, CCl4-induced and 5/6 Nx rats; type: in vivo, rat; details: rat, small intestine, iv, 25 mg/kg, i.v. 25 mg/kg linezolid; 0.5 h; CCl4-induced rats; read-out: Tissue/plasma concentration ratio, Small intestine
readout_kind: Kp at 0.5 h

Specify reported Kp at 0.5 h for the molecule shown: CC(=O)NC[C@H]1CN(c2ccc(N3CCOCC3)c(F)c2)C(=O)O1 0.66

---

experiment: Tissue distribution after i.g. or i.v. linezolid in control, CCl4-induced and 5/6 Nx rats; type: in vivo, rat; conditions: rat, heart, iv, 25 mg/kg, i.v. 25 mg/kg linezolid; 4 h; control rats; read-out: Tissue/plasma concentration ratio, Heart
readout_kind: Kp at 4 h

Give the reported value of Kp at 4 h for this record: CC(=O)NC[C@H]1CN(c2ccc(N3CCOCC3)c(F)c2)C(=O)O1 [Linezolid] 0.13

---

assay: Tissue distribution after i.g. or i.v. linezolid in control, CCl4-induced and 5/6 Nx rats; type: in vivo, rat; conditions: rat, small intestine, iv, 25 mg/kg, i.v. 25 mg/kg linezolid; 1 h; control rats; read-out: Tissue/plasma concentration ratio, Small intestine
readout_kind: Kp at 1 h
Answer with the value's number alone.

Output measured Kp at 1 h for this item: CC(=O)NC[C@H]1CN(c2ccc(N3CCOCC3)c(F)c2)C(=O)O1 0.21

---

assay: Tissue distribution after i.g. or i.v. linezolid in control, CCl4-induced and 5/6 Nx rats; format: in vivo, rat; details: rat, heart, oral, 63 mg/kg, i.g. 63 mg/kg linezolid; 4 h; CCl4-induced rats; read-out: Tissue/plasma concentration ratio, Heart
readout_kind: Kp at 4 h

For the molecule CC(=O)NC[C@H]1CN(c2ccc(N3CCOCC3)c(F)c2)C(=O)O1 [Linezolid] , report Kp at 4 h. 0.61

---

assay: Tissue distribution after i.g. or i.v. linezolid in control, CCl4-induced and 5/6 Nx rats; format: in vivo, rat; conditions: rat, brain, iv, 25 mg/kg, i.v. 25 mg/kg linezolid; 0.5 h; 5/6 Nx rats; read-out: Tissue/plasma concentration ratio, Brain
readout_kind: Kp at 0.5 h
Output: the number by itself.

Respond only with Kp at 0.5 h recorded for CC(=O)NC[C@H]1CN(c2ccc(N3CCOCC3)c(F)c2)C(=O)O1 [Linezolid] 0.12
